// provenance: patent US20150344457A1

- measurement_target: PRMT5/MEP50 (Homo sapiens, UniProt O14744)
- Construct: Expressed full-length human Flag-PRMT5/6His-MeP50 protein complex was purified; made in house; host or cells: Spodoptera frugiperda (SF9) insect cells, baculovirus (pDEST8)
- Sequence (O14744 with tags, fused parts or gaps): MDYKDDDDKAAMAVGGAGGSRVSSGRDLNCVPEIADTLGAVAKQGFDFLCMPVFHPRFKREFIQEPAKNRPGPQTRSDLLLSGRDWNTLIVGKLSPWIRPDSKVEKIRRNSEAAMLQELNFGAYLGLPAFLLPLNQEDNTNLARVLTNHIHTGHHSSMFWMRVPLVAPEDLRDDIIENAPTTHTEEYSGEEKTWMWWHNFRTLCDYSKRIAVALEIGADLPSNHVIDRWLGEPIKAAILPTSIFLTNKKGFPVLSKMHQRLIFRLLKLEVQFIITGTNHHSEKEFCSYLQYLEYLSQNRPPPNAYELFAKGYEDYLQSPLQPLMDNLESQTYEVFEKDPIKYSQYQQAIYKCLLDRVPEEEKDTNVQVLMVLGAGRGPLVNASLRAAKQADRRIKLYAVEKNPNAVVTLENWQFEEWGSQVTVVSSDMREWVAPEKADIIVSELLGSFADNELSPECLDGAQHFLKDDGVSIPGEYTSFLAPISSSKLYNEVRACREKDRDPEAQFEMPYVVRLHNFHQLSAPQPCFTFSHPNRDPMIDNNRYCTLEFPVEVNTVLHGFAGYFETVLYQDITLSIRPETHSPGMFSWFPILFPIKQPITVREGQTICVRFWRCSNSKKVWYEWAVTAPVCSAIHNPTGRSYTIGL
- Sequence (Q9BQA1 with tags, fused parts or gaps partner limits assumed): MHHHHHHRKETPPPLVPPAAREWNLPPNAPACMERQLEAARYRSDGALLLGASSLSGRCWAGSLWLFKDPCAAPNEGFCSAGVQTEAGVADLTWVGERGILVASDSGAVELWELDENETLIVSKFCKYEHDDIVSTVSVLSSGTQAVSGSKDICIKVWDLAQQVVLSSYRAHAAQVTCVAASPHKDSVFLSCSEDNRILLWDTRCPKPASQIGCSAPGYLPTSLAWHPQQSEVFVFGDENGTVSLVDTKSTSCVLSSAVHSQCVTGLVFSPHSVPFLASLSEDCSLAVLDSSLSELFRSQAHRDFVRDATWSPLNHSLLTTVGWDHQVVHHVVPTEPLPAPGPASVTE
- protocol_notes: PRMT5 Biochemical Assay (PRMT5/MEP50 enzyme assay on peptide substrate, 3H-SAM Flashplate)
- assay_setup: Table D-2; read-out: Biochemical IC50
- Text: S-adenosylmethionine (SAM), S-adenosylhomocysteine (SAH), bicine, KCl, Tween20, dimethylsulfoxide (DMSO), bovine skin gelatin (BSG), and Tris(2-carboxyethyl)phosphine hydrochloride solution (TCEP) were purchased from Sigma-Aldrich at the highest level of purity possible. ^3H-SAM was purchase from American Radiolabeled Chemicals with a specific activity of 80 Ci/mmol 384-well streptavidin Flashplates were purchased from PerkinElmer. […]
pIC50: −log10 of the molar value.
reported_property: pIC50

Cn1cnc2ccc(-c3cccc(OCC(O)CN4CCc5ccccc5C4)c3)cc21 (stereo not drawn)	> 7.00
OC(CNc1cc(-c2ccc3ncn(C4CNC4)c3c2)ccn1)CN1CCc2ccccc2C1 (stereo not drawn)	> 7.00

Below: the item to evaluate.
INPUT: Send back PRMT5/MEP50 (Homo sapiens, UniProt O14744) pIC50 of OC(COCc1ccc(CN2CCOCC2)cc1)CN1CCc2ccccc2C1 (stereo not drawn) only.
OUTPUT: 5.00 to 6.00

###

- measurement_target: PRMT5/MEP50 (Homo sapiens)
- Construct: Expressed full-length human Flag-PRMT5/6His-MeP50 protein complex was purified; made in house; host or cells: Spodoptera frugiperda (SF9) insect cells, baculovirus (pDEST8)
- protocol_notes: PRMT5 Biochemical Assay (PRMT5/MEP50 enzyme assay on peptide substrate, 3H-SAM Flashplate)
- assay_setup: Table A-2; PRMT5/MEP50 4 nM, 3H-SAM 75 nM, peptide 40 nM; read-out: Biochemical IC50
- Source text: S-adenosylmethionine (SAM), S-adenosylhomocysteine (SAH), bicine, KCl, Tween20, dimethylsulfoxide (DMSO), bovine skin gelatin (BSG), and Tris(2-carboxyethyl)phosphine hydrochloride solution (TCEP) were purchased from Sigma-Aldrich at the highest level of purity possible. ^3H-SAM was purchase from American Radiolabeled Chemicals with a specific activity of 80 Ci/mmol 384-well streptavidin Flashplates were purchased from PerkinElmer. […]
reported_property: IC50

// solved cases for IC50 follow
CNC(=O)c1ccccc1OCC(=O)NCC(O)CN1CCc2ccccc2C1 (stereo not drawn)	0.101 to 1 µM
O=C(COc1ccccc1-c1c[nH]cn1)NCC(O)CN1CCc2ccccc2C1 (stereo not drawn)	10 to 50 µM

Below: the item to evaluate.
INPUT: Send back PRMT5/MEP50 (Homo sapiens) IC50 of CC(=O)Nc1cncc(OCC(=O)NCC(O)CN2CCc3ccccc3C2)c1 (stereo not drawn) only.
OUTPUT: > 10 µM

###

- measurement_target: PRMT5/MEP50 (Homo sapiens)
- Construct: Expressed full-length human Flag-PRMT5/6His-MeP50 protein complex was purified; made in house; host or cells: Spodoptera frugiperda (SF9) insect cells, baculovirus (pDEST8)
- protocol_notes: PRMT5 Biochemical Assay (PRMT5/MEP50 enzyme assay on peptide substrate, 3H-SAM Flashplate)
- assay_setup: Table D-2; read-out: Biochemical IC50
pIC50: −log10 of the molar value.
reported_property: pIC50

// solved cases for pIC50 follow
Cn1ncc2cc(-c3cccc(OCC(O)CN4CCc5ccccc5C4)c3)ccc21 (stereo not shown) [Compound D108]	> 7.00
COc1ccc(-c2cccc(OCC(O)CN3CCc4ccccc4C3)c2)cc1Cl (stereo not shown) [Compound D168]	6.00 to 7.00
OC(COc1cccc(-c2ccccn2)c1)CN1CCc2ccccc2C1 (stereo not shown) [Compound D98]	5.00 to 6.00
O[C@@H](COc1cccc(-c2cccc3cccnc23)c1)CN1CCc2ccccc2C1 [Compound D257]	> 7.00
O=C(NC1CCOCC1)c1cccc(NCC(O)CN2CCc3ccccc3C2)c1 (stereo not shown) [Compound D79]	4.40 to 5.00

INPUT: Answer with the recorded pIC50 for the compound listed here: Cn1cnc2ccc(-c3ccnc(NCC(O)CN4CCc5ccccc5C4)c3)cc21 (stereo not shown) [Compound D118]
OUTPUT: > 7.00

###

- measurement_target: PRMT5/MEP50 (Homo sapiens)
- Construct: Expressed full-length human Flag-PRMT5/6His-MeP50 protein complex was purified; made in house; host or cells: Spodoptera frugiperda (SF9) insect cells, baculovirus (pDEST8)
- protocol_notes: PRMT5 Biochemical Assay (PRMT5/MEP50 enzyme assay on peptide substrate, 3H-SAM Flashplate)
- assay_setup: Table D-2; read-out: Biochemical IC50
// reported IC50 for each item listed

// solved cases for IC50 follow
OC(CNc1cccc(-c2cccc3[nH]cnc23)c1)CN1CCc2ccccc2C1 (stereo not shown)	101 to 1000 nM
O=C(Cn1ccc2cnc(-c3ccnc(NCC(O)CN4CCc5ccccc5C4)c3)nc21)N1CCOCC1 (stereo not shown)	< 100 nM
Cn1ccc2ccc(-c3cccc(OCC(O)CN4CCc5ccccc5C4)c3)nc21 (stereo not shown)	< 100 nM
OC(CNc1cc(-c2ccc3ncn(C4CCNC4)c3c2)ccn1)CN1CCc2ccccc2C1 (stereo not shown)	< 100 nM
CN1CCCCC1COCC(O)CN1CCc2ccccc2C1 (stereo not shown)	> 40000 nM

Below: the item to evaluate.
INPUT: Send back PRMT5/MEP50 (Homo sapiens) IC50 of O=C(Nc1cccc(OCC(O)CN2CCc3ccccc3C2)c1)c1cocn1 (stereo not shown) only.
OUTPUT: 1000 to 10000 nM

###

- measurement_target: PRMT5/MEP50 (Homo sapiens, UniProt O14744)
- Construct: Expressed full-length human Flag-PRMT5/6His-MeP50 protein complex was purified; made in house; host or cells: Spodoptera frugiperda (SF9) insect cells, baculovirus (pDEST8)
- protocol_notes: PRMT5 Biochemical Assay (PRMT5/MEP50 enzyme assay on peptide substrate, 3H-SAM Flashplate)
- assay_setup: Table B-2; PRMT5/MEP50 4 nM, 3H-SAM 75 nM, peptide 40 nM; read-out: Biochemical IC50
// reported IC50 for each item listed

INPUT: Answer with the recorded IC50 for the compound listed here: CN1CCCC1c1cccc(C(=O)NCC(O)CN2CCc3ccccc3C2)c1 (stereo not shown) [Compound B34.]
OUTPUT: < 100 nM

INPUT: Answer with the recorded IC50 for the compound listed here: COc1cc(NC2CCOCC2)cc(C(=O)NCC(O)CN2CCc3ccccc3C2)c1 (stereo not shown) [Compound B56.]
OUTPUT: 101 to 1000 nM

###

- measurement_target: PRMT5/MEP50 (Homo sapiens)
- Construct: Expressed full-length human Flag-PRMT5/6His-MeP50 protein complex was purified; made in house; host or cells: Spodoptera frugiperda (SF9) insect cells, baculovirus (pDEST8)
- protocol_notes: PRMT5 Biochemical Assay (PRMT5/MEP50 enzyme assay on peptide substrate, 3H-SAM Flashplate)
- assay_setup: Table D-2; read-out: Biochemical IC50
// reported IC50 for each item listed

// solved cases for IC50 follow
O=C(c1ccc(Cn2nccc2-c2ccc(OCC(O)CN3CCc4ccccc4C3)cc2)cc1)N1CCCC1 (stereo not shown) [Compound D31]	101 to 1000 nM
OC(COc1cccc(-c2cnc3ccccc3c2)c1)CN1CCc2ccccc2C1 (stereo not shown) [Compound D89]	101 to 1000 nM
O=C(Nc1cccc(OCC(O)CN2CCc3ccccc3C2)c1)c1cnccn1 (stereo not shown) [Compound D145]	101 to 1000 nM
CCn1ccnc1COCC(O)CN1CCc2ccccc2C1 (stereo not shown) [Compound D295]	> 40000 nM
CC(=O)N(CC(O)CN1CCc2ccccc2C1)c1cccc(-c2ccc3ncn(C)c3c2)c1 (stereo not shown) [Compound D273]	< 100 nM

INPUT: Answer with the recorded IC50 for the compound listed here: COc1cc(Cl)cc(-c2cccc(OCC(O)CN3CCc4ccccc4C3)c2)c1 (stereo not shown) [Compound D110]
OUTPUT: 101 to 1000 nM

INPUT: Answer with the recorded IC50 for the compound listed here: CC1CN(CC(O)COc2cccc(-c3ccc4ncn(C)c4c3)c2)Cc2ccccc21 (stereo not shown) [Compound D101]
OUTPUT: 1000 to 10000 nM

###

// reported EC50 for each item listed
- Tested on: Z-138 cells
- protocol_notes: Z-138 Proliferation Assay (Cell Titer Glo, 5 days)
- Format: cell-based
- assay_setup: Homo sapiens, Table D-2

CN1CCCCC1COCC(O)CN1CCc2ccccc2C1 (stereo not shown) [Compound D289]	> 40 µM
COc1ccc(-c2cccc(OCC(O)CN3CCc4ccccc4C3)c2)c(C)c1 (stereo not shown) [Compound D90]	10 to 40 µM
Cn1cnc2ccc(-c3cc(NCC(O)CN4CCc5ccccc5C4)ncn3)cc21 (stereo not shown) [Compound D207]	1 to 10 µM
Cn1ncc2ccc(-c3ccnc(NCC(O)CN4CCc5ccccc5C4)c3)cc21 (stereo not shown) [Compound D226]	1 to 10 µM
CNC(=O)c1cncc(-c2cccc(OCC(O)CN3CCc4ccccc4C3)c2)c1 (stereo not shown) [Compound D182]	> 20 µM
CC(Oc1cccc(CNC2CCCC2)c1)C(O)CN1CCc2ccccc2C1 (stereo not shown) [Compound D49]	1 to 10 µM
Cn1ccc2ccc(-c3cc(NCC(O)CN4CCc5ccccc5C4)ncn3)cc21 (stereo not shown) [Compound D237]	10 to 40 µM
OC(COc1cccc(-c2ccc3cnoc3c2)c1)CN1CCc2ccccc2C1 (stereo not shown) [Compound D166]	> 20 µM

INPUT: Answer with the recorded EC50 for the molecule listed here: COc1ccc(Cn2cnc3ccc(-c4cccc(OCC(O)CN5CCc6ccccc6C5)c4)cc32)cc1 (stereo not shown) [Compound D82]
OUTPUT: 10 to 40 µM

INPUT: Answer with the recorded EC50 for the molecule listed here: CS(=O)(=O)c1cccc(-c2cccc(OCC(O)CN3CCc4ccccc4C3)c2)c1 (stereo not shown) [Compound D130]
OUTPUT: > 20 µM

INPUT: Answer with the recorded EC50 for the molecule listed here: O=C(Cn1ccc2cnc(-c3ccnc(NCC(O)CN4CCc5ccccc5C4)c3)nc21)N1CCCC1 (stereo not shown) [Compound D233]
OUTPUT: 1 to 10 µM

INPUT: Answer with the recorded EC50 for the molecule listed here: COC(=O)c1cncc(-c2cccc(OCC(O)CN3CCc4ccccc4C3)c2)c1 (stereo not shown) [Compound D180]
OUTPUT: > 20 µM

INPUT: Answer with the recorded EC50 for the molecule listed here: CC(C)(C)OC(=O)N1CCC(OCC(O)CN2CCc3ccccc3C2)CC1 (stereo not shown) [Compound D292]
OUTPUT: > 40 µM
